From: PubChem BioAssay (NCI)

tested on: NCI-H226 lung
Your reply should match one of these outcome classes. 1 for active, 0 for inactive

Below are worked cases with known answers.
O=S(=O)(NCCNc1nccc(-c2c(-c3cccc(O)c3)nc3sccn23)n1)c1ccc(F)cc1 :: 0
CCCc1cc(=O)oc2c(C(=O)CC(C)C)c(O)c(CC=C(C)C)c(O)c12 :: 0
COc1ccc2c(c1)C(=O)c1c-2n(CCCN=[N+]=[N-])c(=O)c2ccccc12 :: 0
CSC1=Nc2c(c(C)c(-c3ccccc3)n2COC(CO)CO)C2=NC(=O)C(C)N12 (centres undefined) :: 0
Cc1ccc(/C=C(\C#N)n2nnc3cc(Cl)c(Cl)cc32)cc1 :: 0
CCCNc1nc(N(C)O)nc(N(C)O)n1 :: 0
COc1cc2c(cc1OCCCCNC(=O)c1cc3ccccc3[nH]1)N=CC1CCCN1C2=O (centres undefined) :: 0
Cc1cccc(CN(C)c2ccc(CO)c(Cl)c2)c1 :: 1

QUERY: // param item: COc1cc2c(cc1OC)C(CCc1ccc(Cl)cc1)N(C)CC2 (centres undefined) ; yields the recorded call
RESULT: 0

###

test system: SF-295 CNS; test: NCI tumour cell line growth inhibition, 48 h
EXPERIMENTAL_ENDPOINT: TGI

# example entries with known answers
CCN(CC)CCn1ncc2ccc3c(c(=O)c4cccnc4n3CCN(CC)CC)c21 :: > 9.52 µM
CCCS(=O)(=O)O :: > 100 µM
CC1=C(C)C(=O)OC(C(C)(O)C2(O)CCC3(O)C4CC(Cl)C5(O)C(O)C=CC(=O)C5(C)C4CCC32C)C1 (stereo not given) :: > 100 µM

QUERY: For the molecule O=c1oc2ncccc2n1Cc1ccc([N+](=O)[O-])cc1 , what TGI is on record?
RESULT: > 100 µM

QUERY: Please report the recorded TGI for CCCCCCCCCc1cc(O)c(O)cc1CCCCCCCCC .
RESULT: > 10 µM

###

Listed here: items and their measured GI50.
system: NCI/ADR-RES ovarian; assay: NCI tumour cell line growth inhibition, 48 h

Solved cases (4 shown):
CCCc1cc(=O)oc2c(C(=O)CC(C)C)c(O)c(CC=C(C)C)c(O)c12 :: 8.6 µM
O=C1Cc2cc(CCn3ccnc3)c(Cl)cc2N1 :: 5.46 µM
CCN1CCN(CCOc2ccc(CNc3ccc4nc(CCC5CCCCC5)[nH]c4c3)cc2)CC1 :: 3.11 µM
CCN(CC)CCN1C(=O)c2cccc3c(-c4ccc5c(c4)ncn5C4CCCCC4)ccc(c23)C1=O :: 1.45 µM

Continue with the molecule presented below.
QUERY: # GI50 lookup, item N#Cc1ccc(Oc2nccc(-c3c(-c4ccc(F)cc4)ncn3C3CCNCC3)n2)cc1
RESULT: > 25 µM

###

# maps each entry to its TGI
system: SNB-78 CNS; test: NCI tumour cell line growth inhibition, 48 h
All answers are understood in µM, so give the number only.

The examples below pair each entry with its known result.
CC1=C(C(=O)Nc2cccc(C(F)(F)F)c2)C(c2ccc(O)cc2)C(C(=O)Nc2cccc(C(F)(F)F)c2)=C(C)N1 :: 83.2
C=C1C(=O)OC2CCCCC3OC3C12 (stereo not given) :: 56.5

QUERY: Fill in the blank: the reported TGI of CN(C)CCNC(=O)c1cccc2nc3ccc4ccccc4c3nc12 is ____.
RESULT: 10

###

# GI50 per entry for RPMI-8226 leukemia

CCOP(=O)(CCP(=O)(OCC)OCC)OCC.C[CH2][Sn]([Cl])([Cl])[CH2]C :: 22.7 µM
Cn1cc(-c2csc(-c3c[nH]c4ncccc34)n2)c2cc(Br)cnc21 :: > 100 µM
COC1=C(OC)C(=O)C(/C=C(\C)C(=O)O)=C(C)C1=O :: > 100 µM
Nc1nc(N)c2cc(CNc3ccc(Cl)c(Cl)c3)ccc2n1 :: 1.61 µM
COc1cc(CNC(=O)/C=C/C=C/c2ccc3c(c2)OCO3)ccc1OCc1cn(-c2ccc(Cl)c(Cl)c2)nn1 :: 2.3 µM

QUERY: Form entry - test system: RPMI-8226 leukemia; read-out: GI50; compound: CCCc1cc(=O)oc2c(C(=O)CC(C)C)c(O)c(CC=C(C)C)c(O)c12
RESULT: 2.86 µM

QUERY: Param readout= GI50; system= RPMI-8226 leukemia; entry= COc1cc2c(cc1OCCCCNC(=O)c1cc3ccccc3[nH]1)N=CC1CCCN1C2=O (configuration not stated) ; returns value.
RESULT: 5.67 µM

###

tested on: MDA-MB-231 breast; test: NCI tumour cell line growth inhibition, 48 h
EXPERIMENTAL_ENDPOINT: TGI

Solved cases below.
NS(=O)(=O)c1nnc(NC(=O)CCC(=O)O)s1 :: > 100 µM
CCN(CC)CCN1c2ccccc2Sc2ccc3ccccc3c21 :: 18.3 µM
CCOC(=O)C(Cc1ccc2c(c1)CCC2)(Cc1ccc2c(c1)CCC2)C(=O)OCC :: > 100 µM

QUERY: May I ask what TGI has been recorded for COc1cccc(Nc2nc(NNC(=O)Cc3ccccc3)nc(NNC(=O)c3ccncc3)n2)c1 ?
RESULT: > 100 µM

###

test system: U251 CNS; experiment: NCI tumour cell line growth inhibition, 48 h
# TGI annotations
Form entry: value (µM) — number only.

Known results for compounds:
Cc1cc(C)nc(NS(=O)(=O)c2ccc(Nc3c4ccccc4nc4c(C(=O)NCCN(C)C)ccc(Cl)c34)cc2)n1 :: 10.4
O=S(=O)(NCCNc1nccc(-c2c(-c3cccc(O)c3)nc3sccn23)n1)c1ccc(F)cc1 :: 49.3
CCCCCCCCCCCCCCCCOC(=O)C(C(=O)OCCCCCCCCCCCCCCCC)[N+](C)(C)CCOC(C)=O :: 27

Now for the compound whose TGI we want.
QUERY: Kindly state the measured TGI obtained for C=CCn1c2ccccc2c2c(C)c3cnccc3c(C)c21 with U251 CNS.
RESULT: 81.3

###

Measured log10 of TGI, listed per entry.
system: SNB-75 CNS; assay: NCI tumour cell line growth inhibition, 48 h
The common logarithm of TGI in µM is what is listed.

Look over these answered cases.
CCCc1cc(=O)oc2c(C(=O)CC(C)C)c(O)c(CC=C(C)C)c(O)c12 :: 1.62
Cc1cccc2c1Oc1cc(Cl)ccc1C2NC(=O)CCN1CCCCC1 (stereo not drawn) :: 1.45
N=C(N)n1ncc(Cl)c(Cl)c1=O :: 0.97
Cc1ccc(/C=C(\C#N)n2nnc3cc(Cl)c(Cl)cc32)cc1 :: 0.99
CSc1ccc2c(c1)c(CCN)c(C)n2Cc1ccc(Cl)c(Cl)c1 :: 0.41

QUERY: Which value of log10 of TGI has been reported for Cc1csc2c(P(=O)(OC(C)C)OC(C)C)c(-c3ccccc3)cn12 in the records?
RESULT: 1.44

QUERY: Suppose we examine the molecule C/C=C/C=N/N(c1nnc(-c2ccccc2)c(-c2ccccc2)n1)S(=O)(=O)c1ccc(C)cc1 ; what log10 of TGI value has been reported?
RESULT: 1.30

QUERY: log10 of TGI for O=C1C(NS(=O)(=O)c2ccccc2)=C(n2cnc3ccccc32)C(=O)c2ccccc21 ?
RESULT: 1.93

QUERY: For Cn1cc(-c2csc(-c3c[nH]c4ncccc34)n2)c2cc(Br)cnc21 , what is its reported log10 of TGI?
RESULT: 0.87

QUERY: Entry under review: COc1cc(CNC(=O)/C=C/C=C/c2ccc3c(c2)OCO3)ccc1OCc1cn(-c2ccc(Cl)c(Cl)c2)nn1 . Reported log10 of TGI?
RESULT: 0.78

QUERY: Query: log10 of TGI; subject: Cc1cc(C)nc(NS(=O)(=O)c2ccc(Nc3c4ccccc4nc4c(C(=O)NCCN(C)C)ccc(Cl)c34)cc2)n1
RESULT: 1.04

QUERY: Give its log10 of TGI value. Item: N/C(=N\O)c1ncc(-c2ccc(C(F)(F)F)cc2)c(NC2CCCCCC2)n1
RESULT: 1.31

QUERY: Returns the measured log10 of TGI for the input molecule. Input: C=C1CC[C@@H]2C(C)(C)[C@@H](O)CC[C@@]2(C)[C@@H]1COc1ccc2ccc(=O)oc2c1
RESULT: 1.51

QUERY: Need log10 of TGI, item COc1ccc(CN2c3ccccc3Sc3ccccc32)cc1F
RESULT: 1.99

QUERY: For the molecule O=C1CCc2c3c(c4c([nH]c5ccccc54)c2CC1)C(=O)NC3=O , what log10 of TGI is on record?
RESULT: -0.21

QUERY: Need log10 of TGI of CCN(CC)CCNc1ccc([N+](=O)[O-])c2nc3ccccc3c(N)c12 , thanks.
RESULT: 0.38

QUERY: Need log10 of TGI, item N#CS/C(C(Cl)=C(Cl)Cl)=C(/Cl)[N+](=O)[O-]
RESULT: 1.72

QUERY: Can you look up the measured log10 of TGI of CCCCCCN(CCCCCC)CCCNc1nccc2ccccc12 for me?
RESULT: 0.63

QUERY: Requested read-out: log10 of TGI. Entry: NCCCNCCSSCc1ccccc1CSSCCNCCCN
RESULT: 1.85
